Molecular target: GDP-bound KRAS wild-type protein (Homo sapiens)
Assay: Binding to KRAS by surface plasmon resonance (SPR), Single Cycle Kinetics
Details: SPR, Single Cycle Kinetics, GDP-bound KRAS wild-type protein; read-out: KRAS KD
endpoint: Kd (pM)
State the answer as a number, implicitly in pM.

compound-structure	Kd / pM
CCO[C@@H]1C[C@H]2C(=O)NC3(CC(C)(C)C3)C(=O)N(C)[C@@H](C3CCCC3)C(=O)N(C)[C@H](C(=O)N(C)C)CC(=O)N(CC)[C@@H](CC(C)C)C(=O)N[C@@H]([C@@H](C)CC)C(=O)NCC(=O)N(C)[C@H]3C/C=C\CCN(C3=O)[C@@H](Cc3ccc(C(F)(F)F)cc3)C(=O)N(C)CC(=O)N[C@@H](CCc3cc(F)c(C(F)(F)F)c(F)c3)C(=O)N2C1	230
CCCN1CC(=O)NC2(CCC2)C(=O)N(C)[C@@H](C2CCCC2)C(=O)N(C)[C@H](C(=O)N(C)C)CC(=O)N(C)[C@@H](CC)C(=O)N[C@@H]([C@@H](C)CC)C(=O)N(C)CC(=O)N(C)[C@H]2C/C=C\CCN(C2=O)[C@@H](Cc2ccc(C(F)(F)F)cc2)C(=O)N(C)CC(=O)N[C@@H](CCc2cc(F)c(C(F)(F)F)c(F)c2)C1=O	320

Here's the next entry for you.
Query Kd on GDP-bound KRAS wild-type protein (Homo sapiens) for CC[C@H](C)[C@@H]1NC(=O)[C@H](CC)N(C)C(=O)C[C@@H](C(=O)N(C)C)N(C)C(=O)[C@H](C2CCCC2)N(C)C(=O)C2(CCC2)NC(=O)[C@H](CC2CCCCC2)N(C)C(=O)[C@H](CCc2cc(F)c(C(F)(F)F)c(F)c2)NC(=O)CN(C)C(=O)[C@H](Cc2ccc(C(F)(F)F)cc2)N2CC/C=C\C[C@@H](C2=O)N(C)C(=O)CN(C)C1=O
430

###

Molecular target: GDP-bound KRAS wild-type protein (Homo sapiens, UniProt P01116)
Sequence (P01116 whole entry): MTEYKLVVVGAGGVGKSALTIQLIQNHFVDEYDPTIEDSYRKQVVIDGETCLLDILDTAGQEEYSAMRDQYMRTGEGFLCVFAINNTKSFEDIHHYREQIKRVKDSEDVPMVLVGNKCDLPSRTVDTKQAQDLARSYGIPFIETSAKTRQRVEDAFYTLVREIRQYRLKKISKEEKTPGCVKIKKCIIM
Assay: Binding to KRAS by surface plasmon resonance (SPR), Single Cycle Kinetics
Settings: SPR, Single Cycle Kinetics, GDP-bound KRAS wild-type protein; read-out: KRAS KD
endpoint: pKd
# pKd: negative log10 of molar concentration; output just the value

compound-structure	endpoint	reported-measurement
CCO[C@@H]1C[C@H]2C(=O)NC3(CC(C)(C)C3)C(=O)N(C)[C@@H](C3CCCC3)C(=O)N(C)[C@H](C(=O)N3CCCCC3)CC(=O)N(C)[C@H]3CCCCCc4ccc(cc4)C[C@@H](C(=O)N(C)CC(=O)N[C@@H](CCc4ccc(C(F)(F)F)c(OC)c4)C(=O)N2C1)N1CC/C=C\C[C@@H](C1=O)N(C)C(=O)CN(C)C(=O)[C@H]([C@@H](C)CC)NC3=O	pKd	9.77
CCCN(C)C(=O)[C@@H]1CC(=O)N(C)[C@@H](COCC)C(=O)N[C@@H]([C@@H](C)CC)C(=O)N(C)CC(=O)N(C)[C@H]2C/C=C\CCN(C2=O)[C@@H](Cc2ccc(C(F)(F)F)cc2)C(=O)N(C)CC(=O)N[C@@H](CCc2ccc(C(F)(F)F)c(OC)c2)C(=O)N2C[C@H](OCC)C[C@H]2C(=O)NC2(CCC2)C(=O)N(C)[C@@H](C2CCCC2)C(=O)N1C	pKd	9.96

Here's the next entry for you.
pKd for C#CC[C@H]1C(=O)N[C@@H]([C@@H](C)CC)C(=O)N(C)CC(=O)N(C)[C@H]2C/C=C\CCN(C2=O)[C@@H](Cc2ccc(C(F)(F)F)cc2)C(=O)N(C)CC(=O)N[C@@H](CCc2ccc(C(F)(F)F)c(OC)c2)C(=O)N2C[C@H](OCC)C[C@H]2C(=O)NC2(CC(C)(C)C2)C(=O)N(C)[C@@H](C2CCCC2)C(=O)N(C)[C@H](C(=O)N(C)CC)CC(=O)N1C ?
9.92

Source: patent US20240158446A1
